The measured values listed here are drawn from ChEMBL document CHEMBL4308845.

test_system: Tyrosine-protein phosphatase non-receptor type 5 (Homo sapiens)
protocol: Binding affinity to human 15N-labeled STEP PTP domain (281 to 563 residues) expressed in Escherichia coli OD2 assessed as induction of chemical perturbation at 500 uM by 1H,15N TROSY NMR spectral analysis
Active and inactive are the calls of the source. The rule behind the calls is not given here.
Bench note: report the call from yes (active), no (inactive)

See these solved cases before continuing.
compound="CC(N)Cc1cccc(C(F)(F)F)c1 (stereo not given)" group=no
compound=N=C(N)Nc1cc(C2CCNCC2)cc(C(F)(F)F)c1 group=yes
compound="CC(N)Cc1cc(N)cc(C(F)(F)F)c1 (stereo not given)" group=no

Now consider the entry below.
Tell me the assay call for `N=C(N)Nc1cccc(C(F)(F)F)c1` please.
yes

====

test_system: Tyrosine-protein phosphatase non-receptor type 5 (Homo sapiens, UniProt P54829)
Sequence (P54829 whole entry): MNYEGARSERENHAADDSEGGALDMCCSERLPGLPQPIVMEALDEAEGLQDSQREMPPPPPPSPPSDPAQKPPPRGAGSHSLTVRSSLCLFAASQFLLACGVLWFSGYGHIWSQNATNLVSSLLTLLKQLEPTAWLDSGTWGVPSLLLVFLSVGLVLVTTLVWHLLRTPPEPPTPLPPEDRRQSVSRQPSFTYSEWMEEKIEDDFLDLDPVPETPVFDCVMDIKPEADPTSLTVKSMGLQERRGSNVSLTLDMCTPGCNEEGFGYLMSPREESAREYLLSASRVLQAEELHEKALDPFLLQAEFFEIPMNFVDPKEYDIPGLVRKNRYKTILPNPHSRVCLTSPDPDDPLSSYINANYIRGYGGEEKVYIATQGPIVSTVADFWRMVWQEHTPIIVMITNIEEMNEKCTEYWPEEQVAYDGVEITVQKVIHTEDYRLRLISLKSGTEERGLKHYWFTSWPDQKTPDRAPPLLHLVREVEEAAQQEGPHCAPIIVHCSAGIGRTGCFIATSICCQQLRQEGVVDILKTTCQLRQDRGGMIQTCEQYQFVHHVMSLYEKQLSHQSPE
protocol: Binding affinity to human 15N-labeled STEP PTP domain (281 to 563 residues) expressed in Escherichia coli OD2 by 1H,15N TROSY NMR spectral analysis
quantity_kind: Kd (µM)
# number only, unit µM dropped from output

Please look up its Kd: `N=C(N)Nc1cc(C2CCNCC2)cc(C(F)(F)F)c1`
38
